# system: Seed linoleate 13S-lipoxygenase-1 (Glycine max, UniProt P08170)
# Sequence (P08170 whole entry): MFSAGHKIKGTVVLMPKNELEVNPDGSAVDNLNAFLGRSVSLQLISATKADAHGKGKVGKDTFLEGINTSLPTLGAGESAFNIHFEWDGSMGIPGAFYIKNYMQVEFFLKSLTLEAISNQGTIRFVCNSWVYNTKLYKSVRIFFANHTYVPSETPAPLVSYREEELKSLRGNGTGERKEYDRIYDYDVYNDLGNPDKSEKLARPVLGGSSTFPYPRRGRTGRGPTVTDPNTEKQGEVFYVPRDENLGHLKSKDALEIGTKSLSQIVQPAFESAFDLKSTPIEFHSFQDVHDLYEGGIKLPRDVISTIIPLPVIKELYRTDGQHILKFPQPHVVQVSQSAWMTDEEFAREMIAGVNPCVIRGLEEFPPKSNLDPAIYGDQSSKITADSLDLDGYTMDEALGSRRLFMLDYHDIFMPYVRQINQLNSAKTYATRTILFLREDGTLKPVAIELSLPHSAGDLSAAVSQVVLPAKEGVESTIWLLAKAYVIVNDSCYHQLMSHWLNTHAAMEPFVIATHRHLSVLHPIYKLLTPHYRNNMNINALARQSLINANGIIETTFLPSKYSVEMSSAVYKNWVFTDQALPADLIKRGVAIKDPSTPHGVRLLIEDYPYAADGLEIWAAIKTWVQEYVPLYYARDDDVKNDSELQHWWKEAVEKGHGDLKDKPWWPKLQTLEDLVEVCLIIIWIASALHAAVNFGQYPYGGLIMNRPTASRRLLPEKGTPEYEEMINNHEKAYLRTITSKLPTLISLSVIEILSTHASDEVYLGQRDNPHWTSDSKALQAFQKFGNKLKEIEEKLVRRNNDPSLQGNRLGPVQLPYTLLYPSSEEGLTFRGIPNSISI
measurement-name: IC50 (µM)

a. Clc1ccc2sc([S][Au][PH](c3ccccc3)(c3ccccc3)c3ccccc3)nc2c1 [[Au(tpp)(Clmbzt)] (4)]
b. [Cl][Au][PH](c1ccccc1)(c1ccccc1)c1ccccc1 [[Au(tpp)Cl] (1)]
Input line: Would you mind telling me which has the lower recorded IC50 between a and b ? Answer = label.
Output line: b
(b: 1.2 µM, a: 16 µM)
